Recorded values, source ChEMBL document CHEMBL1149482.

# pEC50 per record follows
Tested on: MDCK
measurement.notes: Antiviral activity against avian influenza virus H5N1 in MDCK cells measured as reduction in infected cells relative to control
Type: functional, cell-based
assay.setup: Canis lupus familiaris
pEC50 here: minus log base 10 of the concentration, concentration in moles per litre.

{"columns": ["compound", "pEC50"],
 "data": [
  ["CC(=O)N[C@H]1[C@H]([C@H](O)[C@H](O)CO)OC(C(=O)O)=C[C@@H]1NC(=N)N", 5.55]
]}

pEC50 for CCC(O)c1cn([C@H]2C=C(C(=O)O)O[C@@H]([C@H](O)[C@H](O)CO)[C@@H]2NC(C)=O)nn1 (some centres not stated) ? 5.19
